Where do these numbers come from? They come from patent US11186588B2.

# RUN_DESCRIPTION: Pharmacokinetics test in rats (oral administration)
# Format: in vivo, LEW/CrlCrlj rats
# PROTOCOL_CONDITIONS: oral 2 mg/mL solution at 5 mL/kg, mean n = 4
VALUE_TYPE: T1/2 (h)

>  <COMPOUND>
CC(=O)Nc1ccc(C2=NN(Cc3cccnc3)c3nnc(C)n3-c3sc(C)c(C)c32)cc1.Cc1ccc(S(=O)(=O)O)cc1 [1 Tosylate of Example 71]

>  <EXPERIMENTAL_RESULT>
1.42

$$$$

1: CC(=O)Nc1ccc(C2=NN(Cc3cccnc3)c3nnc(C)n3-c3sc(C)c(C)c32)cc1.O=C(O)/C=C\C(=O)O [1 Maleate of Example 71]
2: CC(=O)Nc1ccc(C2=NN(Cc3cccnc3)c3nnc(C)n3-c3sc(C)c(C)c32)cc1.CC(=O)Nc1ccc(C2=NN(Cc3cccnc3)c3nnc(C)n3-c3sc(C)c(C)c32)cc1.O=C(O)/C=C/C(=O)O [0.5 Fumarate of Example 71]
Query :: Consider entries 1 and 2 . Which has the numerically lower T1/2? Selection: enter the item's label.
Result :: 1
